Subject Of Test: α4β7 (adhesion of RPMI cells to CS-1) (Homo sapiens, UniProt P13612+P26010)
Construct: endogenous in cells
Sequence (P13612 34-1032): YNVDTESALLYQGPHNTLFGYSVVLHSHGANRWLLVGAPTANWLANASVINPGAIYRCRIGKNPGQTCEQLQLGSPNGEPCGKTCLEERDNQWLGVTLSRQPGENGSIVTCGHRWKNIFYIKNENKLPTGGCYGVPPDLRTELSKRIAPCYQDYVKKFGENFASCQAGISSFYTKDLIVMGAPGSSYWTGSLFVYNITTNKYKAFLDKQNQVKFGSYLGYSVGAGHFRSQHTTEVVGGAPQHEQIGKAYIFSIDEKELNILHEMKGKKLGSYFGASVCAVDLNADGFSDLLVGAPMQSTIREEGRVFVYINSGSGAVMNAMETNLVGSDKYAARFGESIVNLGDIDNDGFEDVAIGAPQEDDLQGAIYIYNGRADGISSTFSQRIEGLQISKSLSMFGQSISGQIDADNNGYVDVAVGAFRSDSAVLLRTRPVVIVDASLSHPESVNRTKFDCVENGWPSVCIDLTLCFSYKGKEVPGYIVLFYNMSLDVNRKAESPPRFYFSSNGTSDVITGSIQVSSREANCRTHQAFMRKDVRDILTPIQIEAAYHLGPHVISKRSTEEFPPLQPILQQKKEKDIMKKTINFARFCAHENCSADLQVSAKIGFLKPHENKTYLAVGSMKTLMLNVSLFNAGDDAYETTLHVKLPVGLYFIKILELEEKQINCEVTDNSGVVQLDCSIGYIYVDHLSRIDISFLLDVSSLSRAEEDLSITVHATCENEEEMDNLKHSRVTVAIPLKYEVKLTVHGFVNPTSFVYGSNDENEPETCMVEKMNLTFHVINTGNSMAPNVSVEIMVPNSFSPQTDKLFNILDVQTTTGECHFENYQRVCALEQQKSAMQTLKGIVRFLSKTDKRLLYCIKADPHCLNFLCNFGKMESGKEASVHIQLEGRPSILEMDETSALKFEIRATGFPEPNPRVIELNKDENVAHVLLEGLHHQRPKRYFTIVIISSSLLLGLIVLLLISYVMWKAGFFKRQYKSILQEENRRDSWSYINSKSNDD
Sequence (P26010 20-798): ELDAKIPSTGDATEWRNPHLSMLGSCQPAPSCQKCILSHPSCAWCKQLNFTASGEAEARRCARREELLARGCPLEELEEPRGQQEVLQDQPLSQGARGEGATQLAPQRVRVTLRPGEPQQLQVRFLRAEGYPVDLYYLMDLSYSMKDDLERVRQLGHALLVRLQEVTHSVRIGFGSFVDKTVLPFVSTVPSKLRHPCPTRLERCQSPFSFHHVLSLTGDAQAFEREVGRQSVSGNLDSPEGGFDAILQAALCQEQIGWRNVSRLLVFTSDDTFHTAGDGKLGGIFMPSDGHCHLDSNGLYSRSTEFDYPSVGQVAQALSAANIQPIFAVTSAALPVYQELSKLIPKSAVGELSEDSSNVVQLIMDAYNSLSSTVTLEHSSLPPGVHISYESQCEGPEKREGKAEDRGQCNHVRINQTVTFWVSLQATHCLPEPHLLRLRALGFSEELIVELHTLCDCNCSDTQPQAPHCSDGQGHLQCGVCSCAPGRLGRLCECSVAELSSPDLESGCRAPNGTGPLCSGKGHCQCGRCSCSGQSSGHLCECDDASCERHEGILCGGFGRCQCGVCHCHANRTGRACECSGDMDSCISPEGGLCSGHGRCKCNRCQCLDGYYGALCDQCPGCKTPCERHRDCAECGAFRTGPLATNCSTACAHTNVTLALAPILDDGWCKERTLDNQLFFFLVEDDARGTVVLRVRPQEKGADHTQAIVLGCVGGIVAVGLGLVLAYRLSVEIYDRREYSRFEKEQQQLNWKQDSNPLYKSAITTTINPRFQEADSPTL
Assay Summary: RPMI-CS-1 cell adhesion assay
Applied Conditions: adhesion of RPMI B-cell line (expresses α4β7) to CS-1 peptide coated microwells; read-out: RPMI-CS-1 IC50 value range
Give IC50 for every item shown.

# input compound: `COc1ccccc1-c1ccc(C[C@H](NC(=O)c2ccccc2Br)C(=O)O)cc1` ; wanted: its IC50
300 to 1000 nM

# input compound: `COc1cc(CN2CCNCC2)cc(OC)c1-c1ccc(C[C@H](NC(=O)c2c(Cl)cccc2Cl)C(=O)O)cc1` ; wanted: its IC50
< 300 nM

# input compound: `COc1cccc(-c2ccc(C[C@H](NC(=O)c3c(Cl)cccc3Cl)C(=O)O)cc2)c1` ; wanted: its IC50
> 5000 nM

# input compound: `COc1cccc(OC)c1-c1ccc(C[C@H](NC(=O)c2c(Cl)cc(NS(=O)(=O)C(F)(F)F)cc2Cl)C(=O)O)cc1` ; wanted: its IC50
< 300 nM

# input compound: `O=C(N[C@@H](Cc1ccc(-c2ccccc2)cc1)C(=O)O)c1ccccc1[N+](=O)[O-]` ; wanted: its IC50
> 5000 nM

# input compound: `COc1c(C)c(OC)c(-c2ccc(C[C@H](NC(=O)c3c(Cl)cccc3Cl)C(=O)O)cc2)c(OC)c1C` ; wanted: its IC50
< 300 nM

# input compound: `O=C(N[C@@H](Cc1ccc(-c2ccsc2CO)cc1)C(=O)O)c1c(Cl)cccc1Cl` ; wanted: its IC50
1000 to 5000 nM
